Tested on: WM35 (Melanoma)
method: combination Emax (second highest fraction inhibited in the dose matrix, 72 h); higher = more inhibition; extreme values may be limits of the assay
recorded-endpoint: combination Emax

{"columns": ["compound", "value-observed"],
 "data": [
  ["Cc1cc2ncnn2cc1Nc1ncc2c(n1)n(C1CCOCC1)c(=O)n2C [AZD7648] + CCN(CCO)CCCOc1ccc2c(Nc3cc(CC(=O)Nc4cccc(F)c4)[nH]n3)ncnc2c1 [AZD2811] (first compound max 10 µM, 7x7, partner max 1 µM)", 0.155],
  ["CCN(CCO)CCCOc1ccc2c(Nc3cc(CC(=O)Nc4cccc(F)c4)[nH]n3)ncnc2c1 [AZD2811] + C[C@@H]1COCCN1C2=NC(=NC(=C2)C3(CC3)[S@](=N)(=O)C)C4=C5C=CNC5=NC=C4 [AZD6738] (first compound max 1 µM, 7x7, partner max 10 µM)", 0.575],
  ["CN(C)CCCOc1ccc(-c2ccc3ncc4c(c3c2)n(C2CCOCC2)c(=O)n4C)cn1 [AZD0156] + CCN(CCO)CCCOc1ccc2c(Nc3cc(CC(=O)Nc4cccc(F)c4)[nH]n3)ncnc2c1 [AZD2811] (first compound max 1 µM, 7x7, partner max 1 µM)", 0.119]
]}

====

Tested on: COR-L88 (Small Cell Lung Carcinoma)
method: Bliss excess, mean over the matrix (fraction); higher = more synergy
Recorded Bliss excess split into classes zone 1 (below -0.02), zone 2 (-0.02 to below 0.006), zone 3 (0.006 or more)

{"columns": ["molecule", "cat"],
 "data": [
  ["CC1(C)CCC(CN2CCN(c3ccc(C(=O)NS(=O)(=O)c4ccc(NCC5CCOCC5)c([N+](=O)[O-])c4)c(Oc4cnc5[nH]ccc5c4)c3)CC2)=C(c2ccc(Cl)cc2)C1 [Venetoclax] + CS(=O)(=O)CCNCc1ccc(-c2ccc3ncnc(Nc4ccc(OCc5cccc(F)c5)c(Cl)c4)c3c2)o1 [Lapatinib] (first compound max 1 µM, 7x7, partner max 10 µM)", "zone 2"],
  ["NC1(C(=O)N[C@@H](CCO)c2ccc(Cl)cc2)CCN(c2ncnc3[nH]ccc23)CC1 [Capivasertib] + CC(C)n1c(=O)n(C)c2cnc3cc(F)c(-c4ccc(OCCCN5CCCCC5)nc4)cc3c21 [AZD1390] (first compound max 10 µM, 7x7, partner max 0.3 µM)", "zone 1"],
  ["Cc1cc2ncnn2cc1Nc1ncc2c(n1)n(C1CCOCC1)c(=O)n2C [AZD7648] + C[C@@H]1COCCN1C2=NC(=NC(=C2)C3(CC3)[S@](=N)(=O)C)C4=C5C=CNC5=NC=C4 [AZD6738] (first compound max 10 µM, 7x7, partner max 10 µM)", "zone 3"],
  ["NC1(C(=O)N[C@@H](CCO)c2ccc(Cl)cc2)CCN(c2ncnc3[nH]ccc23)CC1 [Capivasertib] + COc1nnc2ccc(N3CCC(c4ccc(OCCN5CCN(C)C(=O)[C@H]5C)cc4)CC3)nn12 [AZD5153] (first compound max 10 µM, 7x7, partner max 1 µM)", "zone 3"],
  ["CN(CCO)CC[C@H](CSc1ccccc1)Nc1ccc(S(=O)(=O)NC(=O)c2ccc(N3CCC([C@@H](O)c4ccccc4-c4ccc(Cl)cc4)CC3)cc2)cc1S(=O)(=O)C(F)(F)F [AZD4320] + C1CN(CCC1(C(=O)N[C@@H](CCO)C2=CC=C(C=C2)Cl)N)C3=NC=NC4=C3C=CN4 [Capivasertib] (first compound max 1 µM, 7x7, partner max 3 µM)", "zone 3"],
  ["C[C@@H](c1ccc2nccn2c1)n1nnc2ncc(-c3cnn(C)c3)nc21 [Savolitinib] + CC1(C)CCC(CN2CCN(c3ccc(C(=O)NS(=O)(=O)c4ccc(NCC5CCOCC5)c([N+](=O)[O-])c4)c(Oc4cnc5[nH]ccc5c4)c3)CC2)=C(c2ccc(Cl)cc2)C1 [Venetoclax] (first compound max 1 µM, 7x7, partner max 1 µM)", "zone 1"],
  ["Cn1cnc2c(F)c(Nc3ccc(Br)cc3Cl)c(C(=O)NOCCO)cc21 [Selumetinib] + CCN(CCO)CCCOc1ccc2c(Nc3cc(CC(=O)Nc4cccc(F)c4)[nH]n3)ncnc2c1 [AZD2811] (first compound max 10 µM, 7x7, partner max 1 µM)", "zone 2"],
  ["CCN(CCO)CCCOc1ccc2c(Nc3cc(CC(=O)Nc4cccc(F)c4)[nH]n3)ncnc2c1 [AZD2811] + O=C(c1cc(Cc2n[nH]c(=O)c3ccccc23)ccc1F)N1CCN(C(=O)C2CC2)CC1 [Olaparib] (first compound max 1 µM, 7x7, partner max 10 µM)", "zone 1"],
  ["C[C@@H](Nc1cc(F)cc(F)c1)c1cc(C(=O)N(C)C)cc2c(=O)cc(N3CCOCC3)oc12 [AZD8186] + C1CN(CCC1(C(=O)N[C@@H](CCO)C2=CC=C(C=C2)Cl)N)C3=NC=NC4=C3C=CN4 [AZD5363] (first compound max 10 µM, 7x7, partner max 10 µM)", "zone 1"],
  ["O=C(c1cc(Cc2n[nH]c(=O)c3ccccc23)ccc1F)N1CCN(C(=O)C2CC2)CC1 [Olaparib] + CN(CC[C@H](CSC1=CC=CC=C1)NC2=C(C=C(C=C2)S(=O)(=O)NC(=O)C3=CC=C(C=C3)N4CCC(CC4)[C@H](C5=CC=CC=C5C6=CC=C(C=C6)Cl)O)S(=O)(=O)C(F)(F)F)CCO [AZD4320] (first compound max 10 µM, 7x7, partner max 1 µM)", "zone 3"],
  ["CN(CCO)CC[C@H](CSc1ccccc1)Nc1ccc(S(=O)(=O)NC(=O)c2ccc(N3CCC([C@@H](O)c4ccccc4-c4ccc(Cl)cc4)CC3)cc2)cc1S(=O)(=O)C(F)(F)F [AZD4320] + CCN(CCO)CCCOc1ccc2c(Nc3cc(CC(=O)Nc4cccc(F)c4)[nH]n3)ncnc2c1 [AZD2811] (first compound max 1 µM, 7x7, partner max 1 µM)", "zone 3"],
  ["NC1(C(=O)N[C@@H](CCO)c2ccc(Cl)cc2)CCN(c2ncnc3[nH]ccc23)CC1 [Capivasertib] + C[C@@H]1COCCN1C2=NC(=NC(=C2)C3(CC3)[S@](=N)(=O)C)C4=C5C=CNC5=NC=C4 [AZD6738] (first compound max 10 µM, 7x7, partner max 10 µM)", "zone 1"],
  ["CCN(CCO)CCCOc1ccc2c(Nc3cc(CC(=O)Nc4cccc(F)c4)[nH]n3)ncnc2c1 [AZD2811] + C=CCn1c(=O)c2cnc(Nc3ccc(N4CCN(C)CC4)cc3)nc2n1-c1cccc(C(C)(C)O)n1 [AZD1775] (first compound max 1 µM, partner max 1 µM)", "zone 2"]
]}

====

Overview of recorded combination Emax for various compounds
System: NCI-H226 (Mesothelioma)
method: combination Emax (second highest fraction inhibited in the dose matrix, 72 h); higher = more inhibition; extreme values may be limits of the assay
recorded-endpoint: combination Emax

{"columns": ["compound", "subject-of-test", "recorded-endpoint", "value-observed"],
 "data": [
  ["CS(=O)(=O)CCNCc1ccc(-c2ccc3ncnc(Nc4ccc(OCc5cccc(F)c5)c(Cl)c4)c3c2)o1 [Lapatinib] + Cn1cnc2c(F)c(Nc3ccc(Br)cc3Cl)c(C(=O)NOCCO)cc21 [Selumetinib] (first compound max 10 µM, 7x7, partner max 10 µM)", "NCI-H226 (Mesothelioma)", "combination Emax", 0.228],
  ["CC1(C)CCC(CN2CCN(c3ccc(C(=O)NS(=O)(=O)c4ccc(NCC5CCOCC5)c([N+](=O)[O-])c4)c(Oc4cnc5[nH]ccc5c4)c3)CC2)=C(c2ccc(Cl)cc2)C1 [Venetoclax] + C1CN(CCC1(C(=O)N[C@@H](CCO)C2=CC=C(C=C2)Cl)N)C3=NC=NC4=C3C=CN4 [Capivasertib] (first compound max 1 µM, 7x7, partner max 3 µM)", "NCI-H226 (Mesothelioma)", "combination Emax", 0.241],
  ["COc1cccc(OCCCN)c1-c1cc(Nc2cnc(C#N)cn2)n[nH]1 [Prexasertib] + Cc1cc2ncnn2cc1Nc1ncc2c(n1)n(C1CCOCC1)c(=O)n2C [AZD7648] (first compound max 1 µM, 7x7, partner max 10 µM)", "NCI-H226 (Mesothelioma)", "combination Emax", 0.209],
  ["CN(CCO)CC[C@H](CSc1ccccc1)Nc1ccc(S(=O)(=O)NC(=O)c2ccc(N3CCC([C@@H](O)c4ccccc4-c4ccc(Cl)cc4)CC3)cc2)cc1S(=O)(=O)C(F)(F)F [AZD4320] + C1CN(CCC1(C(=O)N[C@@H](CCO)C2=CC=C(C=C2)Cl)N)C3=NC=NC4=C3C=CN4 [Capivasertib] (first compound max 1 µM, 7x7, partner max 3 µM)", "NCI-H226 (Mesothelioma)", "combination Emax", 0.227]
]}

====

Test system: AM-38 (Glioblastoma)
method: Bliss excess, mean over the matrix (fraction); higher = more synergy
Overview of recorded Bliss excess for various molecules

{"columns": ["molecule", "Bliss excess"],
 "data": [
  ["CC(=O)Nc1cccc(-n2c(=O)n(C3CC3)c(=O)c3c(Nc4ccc(I)cc4F)n(C)c(=O)c(C)c32)c1 [Trametinib] + Cc1nc(-c2cn3c(n2)-c2ccc(-c4cnn(C(C)(C)C(N)=O)c4)cc2OCC3)n(C(C)C)n1 [Taselisib] (first compound max 1 µM, 7x7, partner max 10 µM)", 0.117],
  ["COc1nnc2ccc(N3CCC(c4ccc(OCCN5CCN(C)C(=O)[C@H]5C)cc4)CC3)nn12 [AZD5153] + C[C@@H]1COCCN1C2=NC(=NC(=C2)C3(CC3)[S@](=N)(=O)C)C4=C5C=CNC5=NC=C4 [AZD6738] (first compound max 1 µM, 7x7, partner max 10 µM)", 0.0447]
]}

Cited source for all entries: the supplement of paper PMC11061612
